Biological target: HPK1 (Homo sapiens)
Sequence (Q92918 1-346): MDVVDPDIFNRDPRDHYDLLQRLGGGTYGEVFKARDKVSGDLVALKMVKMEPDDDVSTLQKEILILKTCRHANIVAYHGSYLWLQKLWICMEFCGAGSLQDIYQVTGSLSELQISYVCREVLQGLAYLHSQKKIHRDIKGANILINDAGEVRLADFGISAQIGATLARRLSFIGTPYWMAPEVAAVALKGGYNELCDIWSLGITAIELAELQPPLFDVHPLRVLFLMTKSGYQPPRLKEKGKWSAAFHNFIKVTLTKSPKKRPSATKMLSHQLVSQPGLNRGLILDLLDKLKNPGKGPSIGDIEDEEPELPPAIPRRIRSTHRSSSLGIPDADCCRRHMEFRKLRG
Assay: HPK1 kinase activity assay (ADP-Glo)
Settings: HPK1 Kinase activity IC50, ADP-Glo; 1 nM HPK1, 10 μM ATP, 0.1 μg/μL MBP
pIC50: −log10 of the molar value.
propertyName: pIC50

Consider the reported pIC50 for these compounds:
compound | propertyName | reported
Cc1c[nH]c2ncc(-c3cc4c(c([C@@H]5COCCN5)c3)CN(C(=O)N3CC5CCC3CO5)CC4)cc12 (stereo partly drawn) [Compound Z457] | pIC50 | 9.85
Cc1c[nH]c2ncc(-c3cc4c(c([C@@H]5COCCN5)c3)CCN(C(=O)[C@H]3CCOC3)C4)cc12 [Compound Z446] | pIC50 | 9.08

[a] CCc1c[nH]c2ncc(-c3cc4c(c([C@@H]5COCCN5)c3)CN(C(=O)N3CCOCC3)CC4)cc12 [Compound Z448]
[b] CC(C)c1c[nH]c2ncc(-c3cc4c(c([C@@H]5COCCN5)c3)CN(C(=O)C(C)(C)O)CC4)nc12 [Compound Z541]
Q: Given a and given b , which shows the smaller recorded pIC50? Your answer should be the label of the entry you select.
A: a
(a: 9.54, b: 9.80)

[1] O=C(N1CCc2cc(-c3cnc4[nH]cc(Cl)c4n3)cc([C@@H]3COCCN3)c2C1)N1C[C@@H]2CC[C@H]1CO2 (single isomer, unassigned) [Compound Z590]
[2] Cc1c[nH]c2ncc(-c3cc4c(c([C@@H]5CCCN5)c3)CN(C(=O)c3cc(C5CC5)nn3C)CC4)cc12 [Compound Z493]
Q: Lab note: record which item had the higher pIC50, 1 or 2 . Your answer should be the label of the entry you select.
A: 1
(1: 9.62, 2: 9.39)

====

Target: HPK1 (Homo sapiens, UniProt Q92918)
Experiment: HPK1 kinase activity assay (ADP-Glo)
Conditions: HPK1 Kinase activity IC50, ADP-Glo; 1 nM HPK1, 10 μM ATP, 0.1 μg/μL MBP
propertyName: IC50 (pM)

Consider the reported IC50 for these compounds:
compound | propertyName | unitAbbrev | reported
Cc1c[nH]c2ncc(-c3cc4c(c([C@@H]5CCCN5)c3)CN(C(=O)C(C)O)C4)cc12 (mixture of isomers) [Compound Z382] | IC50 | pM | 1350
Cc1c[nH]c2ncc(-c3cc4c(c([C@@H]5COCCN5)c3)CN(C(=O)N3CCOC[C@@H]3C)CC4)nc12 [Compound Z574] | IC50 | pM | 410

[A] Cc1c[nH]c2ncc(-c3cc4c(c([C@@H]5COCCN5)c3)CN(C(=O)N3CCC(F)(F)CC3)CC4)nc12 [Compound Z624]
[B] Cc1c[nH]c2ncc(-c3cc4c(c([C@@H]5COCCN5)c3)CN(C(=O)C3(C)CCOCC3)CC4)cc12 [Compound Z615]
Q: Given A and given B , which shows the smaller recorded IC50? Your answer should be the label of the entry you select.
A: A

[P] O=C(N1CCc2cc(-c3cnc4[nH]cc(C(F)(F)F)c4c3)cc([C@@H]3COCCN3)c2C1)N1CC2CCC(C1)O2 [Compound Z544]
[Q] Cc1c[nH]c2ncc(-c3cc4c(c([C@@H]5COCCN5)c3)CN(C(=O)N3C[C@@H](C)O[C@H](C)C3)CC4)cc12 [Compound Z552]
Q: Lab note: record which item had the higher IC50, P or Q . Your answer should be the label of the entry you select.
A: Q
(Q: 220 pM, P: 120 pM)

====

Target: UniProt:Q92918
Experiment: HPK1 kinase activity assay (ADP-Glo)
Conditions: HPK1 Kinase activity IC50, ADP-Glo; 1 nM HPK1, 10 μM ATP, 0.1 μg/μL MBP
pIC50: −log10 of the molar value. Structures can show the parent of a compound that is named as a salt.
propertyName: pIC50

molecule | testSystem | pIC50
CCNC(=O)N1CCc2cc(-c3cnc4[nH]cc(C)c4c3)cc([C@@H]3COCCN3)c2C1 [Compound Z376, formate] | UniProt:Q92918 | 9.48
Cc1c[nH]c2ncc(-c3cc4c(c([C@@H]5COCCN5)c3)CN(C(=O)N3C[C@H]5C[C@@H]3CO5)CC4)nc12 | UniProt:Q92918 | 9.57
Cc1c[nH]c2ncc(-c3cc4c(c([C@@H]5COCCN5)c3)CN(C(=O)N3CCC(F)CC3)CC4)nc12 | UniProt:Q92918 | 9.62

[P] Cc1c[nH]c2ncc(-c3cc4c(c([C@@H]5COCCN5)c3)CN(C(=O)[C@](C)(O)C(F)(F)F)CC4)nc12
[Q] CC(C)(O)C(=O)N1CCc2cc(-c3cnc4[nH]cc(F)c4c3)cc([C@@H]3COCCN3)c2C1
[R] Cc1c[nH]c2ncc(-c3cc4c(c([C@@H]5COCCN5)c3)CN(C(=O)N3CC5CCC(C3)O5)CC4)nc12
Q: Reorder the items by pIC50, least to greatest. Write out the labels following the order that was asked for.
A: Q, P, R

====

Molecular target: HPK1 (Homo sapiens, UniProt Q92918)
Assay: HPK1 kinase activity assay (ADP-Glo)
Conditions: HPK1 Kinase activity IC50, ADP-Glo; 1 nM HPK1, 10 μM ATP, 0.1 μg/μL MBP
pIC50: −log10 of the molar value.
propertyName: pIC50

[P] CCc1c(Cl)[nH]c2ncc(-c3cc4c(c([C@@H]5COCCN5)c3)CN(C(=O)C(C)(C)O)CC4)cc12
[Q] Cc1c[nH]c2ncc(-c3cc4c(c([C@@H]5COCCN5)c3)CN(C(=O)N3C[C@@H](C)O[C@H](C)C3)CC4)nc12
[R] Cc1c[nH]c2ncc(-c3cc4c(c([C@@H]5CCCN5)c3)CN(C(=O)N3CCOC(C(F)(F)F)C3)CC4)cc12 (stereo partly shown) [Compound Z497]
Q: Kindly order the items shown according to pIC50, from the highest value down. Write out the labels following the order that was asked for.
A: Q, R, P

====

Target: HPK1 (Homo sapiens, UniProt Q92918)
Assay: SLP76 phosphorylation assay (intracellular HPK1 inhibitory activity, p-SLP76 S376 ELISA in Jurkat cells)
Conditions: p-SLP76 IC50, Jurkat, Clone E6-1 cells; 1 h compound pre-incubation; anti-CD3 beads stimulation 20 min; Phospho-SLP-76 (Ser376) ELISA
Sequence (Q92918 whole entry): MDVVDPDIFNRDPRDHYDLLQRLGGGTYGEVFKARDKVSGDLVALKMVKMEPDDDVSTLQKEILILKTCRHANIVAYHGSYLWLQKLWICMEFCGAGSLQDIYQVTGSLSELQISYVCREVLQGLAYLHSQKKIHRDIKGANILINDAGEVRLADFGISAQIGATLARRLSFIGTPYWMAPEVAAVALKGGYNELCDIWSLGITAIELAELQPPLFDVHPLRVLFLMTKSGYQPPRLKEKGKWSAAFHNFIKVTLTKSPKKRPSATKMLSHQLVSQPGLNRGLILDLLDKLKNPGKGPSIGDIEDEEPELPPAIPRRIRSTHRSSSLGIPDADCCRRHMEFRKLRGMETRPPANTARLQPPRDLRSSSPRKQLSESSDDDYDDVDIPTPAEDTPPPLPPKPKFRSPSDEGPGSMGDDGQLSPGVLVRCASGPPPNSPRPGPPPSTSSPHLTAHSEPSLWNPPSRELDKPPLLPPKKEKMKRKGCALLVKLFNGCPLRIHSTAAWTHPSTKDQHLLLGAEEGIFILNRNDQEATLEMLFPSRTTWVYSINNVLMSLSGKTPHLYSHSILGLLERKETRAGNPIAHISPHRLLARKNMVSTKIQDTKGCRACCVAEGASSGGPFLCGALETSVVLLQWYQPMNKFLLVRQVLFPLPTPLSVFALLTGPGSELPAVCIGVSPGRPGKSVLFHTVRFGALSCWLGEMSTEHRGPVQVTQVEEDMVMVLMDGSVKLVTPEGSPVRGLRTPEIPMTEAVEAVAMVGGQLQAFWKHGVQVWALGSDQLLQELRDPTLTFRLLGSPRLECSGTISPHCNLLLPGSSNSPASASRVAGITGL
pIC50: −log10 of the molar value.
propertyName: pIC50

mol | pIC50
Cc1c[nH]c2ncc(-c3cc4c(c([C@@H]5COCCN5)c3)CN(C(=O)N3CC5(COC5)C3)CC4)cc12 | 6.56
CN1C2CCC1CN(C(=O)N1CCc3cc(-c4cnc5[nH]cc(Cl)c5n4)cc([C@@H]4COCCN4)c3C1)C2 | 6.38

[A] Cc1cc(C(=O)N2CCc3cc(-c4cnc5[nH]cc(Cl)c5c4)cc([C@@H]4COCCN4)c3C2)nc(C)n1
[B] Cc1c[nH]c2ncc(-c3cc4c(c([C@@H]5COCCN5)c3)CN(C(=O)N3CCOC[C@@H]3C)CC4)cc12
Q: Given A and given B , which shows the smaller recorded pIC50? Your answer should be the label of the entry you select.
A: A

====

Target: HPK1 (Homo sapiens)
Assay: HPK1 kinase activity assay (ADP-Glo)
Conditions: HPK1 Kinase activity IC50, ADP-Glo; 1 nM HPK1, 10 μM ATP, 0.1 μg/μL MBP
propertyName: IC50 (nM)

Consider the reported IC50 for these compounds:
compound | IC50 (nM)
O=C(N1CCc2cc(-c3cnc4[nH]cc(C(F)(F)F)c4n3)cc([C@@H]3COCCN3)c2C1)N1CC2CCC(C1)O2 | 0.25
Cc1c[nH]c2ncc(-c3cc4c(c([C@@H]5CCCN5)c3)CN(C(=O)C(C)(C)C)CC4)cc12 | 0.78
Cc1c[nH]c2ncc(-c3cc4c(c([C@@H]5CCCN5)c3)CN(C(=O)c3ccn(C5CC5)n3)CC4)cc12 | 0.81
Cc1c[nH]c2ncc(-c3cc4c(c([C@@H]5COCCN5)c3)CN(C(=O)N3C[C@@H]5CC[C@H]3CO5)CC4)cc12 (single isomer, unassigned) | 0.25
Cc1c[nH]c2ncc(-c3cc4c(c([C@@H]5COCCN5)c3)CN(C(=O)C(C)(C)O)CC4)cc12 | 0.18
O=C(N1CCc2cc(-c3cnc4[nH]cc(Cl)c4n3)cc([C@@H]3COCCN3)c2C1)N1CC2CCC(C1)O2 | 0.11
O=C(N1CCc2cc(-c3cnc4[nH]cc(Cl)c4c3)cc([C@@H]3COCCN3)c2C1)N1C[C@H]2C[C@@H]1CO2 | 0.27

[1] CC(C)(O)C(=O)N1CCc2cc(-c3cnc4[nH]cc(C(F)(F)F)c4c3)cc([C@@H]3COCCN3)c2C1
[2] Cc1c[nH]c2ncc(-c3cc4c(c([C@@H]5COCCN5)c3)CN(C(=O)[C@H]3CCOC3)CC4)cc12
Q: Given 1 and given 2 , which shows the smaller recorded IC50? Your answer should be the label of the entry you select.
A: 2

The origin of these recorded values is patent US20250084078A1.
